# Kd annotations
# MEASURED TARGET: T1, biotinylated human DLL3 protein expressed as a human IgG1 fusion protein (human, UniProt Q9NYJ7 27-492, limits assumed, biotinylated)
# T1 sequence: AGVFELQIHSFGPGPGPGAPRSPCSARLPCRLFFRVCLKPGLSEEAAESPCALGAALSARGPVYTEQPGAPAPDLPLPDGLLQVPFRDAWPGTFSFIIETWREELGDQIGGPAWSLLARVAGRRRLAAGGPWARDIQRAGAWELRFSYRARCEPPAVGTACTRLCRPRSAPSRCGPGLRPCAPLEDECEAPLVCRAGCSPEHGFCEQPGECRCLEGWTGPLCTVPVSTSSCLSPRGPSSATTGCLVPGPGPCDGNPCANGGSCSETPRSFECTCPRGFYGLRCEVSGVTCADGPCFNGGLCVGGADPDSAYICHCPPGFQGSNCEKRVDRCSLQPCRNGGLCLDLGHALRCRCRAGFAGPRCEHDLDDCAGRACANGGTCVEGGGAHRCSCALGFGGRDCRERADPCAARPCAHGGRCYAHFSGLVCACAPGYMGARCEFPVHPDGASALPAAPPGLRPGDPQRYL
# PROTOCOL: Octet BLI, single 50 nM
QUANTITY NAME: Kd (nM)

binder="4G07 anti-DLL3 trispecific protein (other, not shown: linker 1808, anti-albumin sdAb, linker 1808, anti-CD3 fragment, His6 1819) EVQLVESGGGLVQPGGSLTLSCAASGSSVSFLSVAWYRQAPGKKRELVAGISANGSTDYIDSVKGRFTISRDNAKNSVYLQMNSLRAEDTAVYYCYAYRWTNRYTYWGQGTLVTVSS" scale_unit=nM recorded_result=18
binder="3G09 anti-DLL3 trispecific protein (other, not shown: linker 1808, anti-albumin sdAb, linker 1808, anti-CD3 fragment, His6 1819) EVQLVESGGGLVQPGGSLTLSCAASGSSVSVLSMAWYRQAPGKKRELVAGISADGSTDYIGSVKGRFTISRDNAKNSVYLQMNSLRAEDTAVYYCYAYRWTTRTTYWGQGTLVTVSS" scale_unit=nM recorded_result=7.3
binder="4D06 anti-DLL3 trispecific protein (other, not shown: linker 1808, anti-albumin sdAb, linker 1808, anti-CD3 fragment, His6 1819) EVQLVESGGGLVQPGGSLTLSCAASGSSVKFLSMAWYRQAPGKKRELVAGISPDGSTDYIDSVKGRFTISRDNAKNSVYLQMNSLRAEDTAVYYCYAYRWTTRYRYWGQGTLVTVSS" scale_unit=nM recorded_result=7.5
binder="3A04 anti-DLL3 trispecific protein (other, not shown: linker 1808, anti-albumin sdAb, linker 1808, anti-CD3 fragment, His6 1819) EVQLVESGGGLVQPGGSLTLSCAASGSQVSFLSMAWYRQAPGKKRELVAGISRDGSTDYIDSVKGRFTISRDNAKNSVYLQMNSLRAEDTAVYYCYAYRWTTRYIYWGQGTLVTVSS" scale_unit=nM recorded_result=9.2

Origin of the recorded values: patent US20240141072A1
